All values here come from BindingDB's records for doi:10.1021/jm0500875.

Listed here: molecules with reported Ki for Stromelysin-1 (Homo sapiens, UniProt P08254).
// units = nM; emit number, no label

Solved entries (count: 5):
CC(=O)N1CCC(C(=O)NO)(S(=O)(=O)c2ccc(Sc3ccccc3)cc2)CC1 = 23
COCCN1CCC(C(=O)NO)(S(=O)(=O)c2ccc(Oc3ccccc3)cc2)CC1 = 0.3
O=C(NO)C1(CS(=O)(=O)c2ccc(Oc3ccc(Cl)cc3)cc2)CCOCC1 = 17.5
CS(=O)(=O)N1CCC(C(=O)NO)(S(=O)(=O)c2ccc(Sc3ccccc3)cc2)CC1 = 32
O=C(NO)C1(CS(=O)(=O)c2ccc(Oc3ccccc3)cc2)CCN(CCc2ccccc2)CC1 = 42.5

Please look up its Ki: CN1CCC(C(=O)NO)(S(=O)(=O)c2ccc(Sc3ccccc3)cc2)CC1
39.3

Proceed to O=C(NO)C1(S(=O)(=O)c2ccc(Oc3ccc(Cl)cc3)cc2)CCOCC1
18.1

====

# pKi per entry
Biological target: Interstitial collagenase (Homo sapiens, UniProt P03956)
Sequence (P03956 whole entry): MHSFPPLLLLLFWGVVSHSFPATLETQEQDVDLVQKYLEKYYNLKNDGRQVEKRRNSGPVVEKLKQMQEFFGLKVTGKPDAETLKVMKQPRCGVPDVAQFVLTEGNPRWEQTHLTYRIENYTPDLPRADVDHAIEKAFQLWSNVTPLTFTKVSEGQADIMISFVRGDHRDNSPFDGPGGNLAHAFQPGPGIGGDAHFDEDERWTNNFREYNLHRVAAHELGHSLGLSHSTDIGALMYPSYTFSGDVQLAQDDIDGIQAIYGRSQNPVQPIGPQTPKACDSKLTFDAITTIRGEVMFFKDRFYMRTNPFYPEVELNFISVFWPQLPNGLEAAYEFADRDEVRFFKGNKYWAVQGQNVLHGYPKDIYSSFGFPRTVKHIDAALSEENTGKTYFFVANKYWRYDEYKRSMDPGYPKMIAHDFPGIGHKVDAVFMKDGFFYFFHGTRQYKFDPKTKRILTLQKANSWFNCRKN
Assay: Enzyme Inhibition Assay
Settings: pH 7.5; 25 °C
Would you please state pKi, meaning minus log10 of the concentration in mol/L, as a bare number?

O=C(NO)C1(CS(=O)(=O)c2ccc(Oc3ccc(Cl)cc3)cc2)CCOCC1 = 6.10
C#CCN1CCC(CS(=O)(=O)c2ccc(Oc3ccccc3)cc2)(C(=O)NO)CC1 = 6.38

Query compound follows.
Please look up its pKi: CC(C)(C)OC(=O)N1CCC(C(=O)NO)(S(=O)(=O)c2ccc(Oc3ccccc3)cc2)CC1
5.94
